# Tested on: BT-549
# Assay: normalised response (% of control), CellTox Green; higher = less cell death (100 = DMSO, 0 = benzethonium chloride kill control)
# Measurement Context: incubation time: 72 h
Could you please report measured normalised response for the items listed next?
Your reply should be a number followed by the unit it is expressed in.

-- ask Please state recorded normalised response (tested on BT-549) of CCN(CC)CCCC(C)Nc1ccnc2cc(Cl)ccc12 (stereo unspecified) [Chloroquine] (1000 nM)
-- reply 105%

-- ask Quick check: normalised response on BT-549, item O=C(CCCCCCC(=O)Nc1ccccc1)NO [Vorinostat] (10000 nM) ?
-- reply 74.8%

-- ask API: value(readout=normalised response, system=BT-549) for record C/C(=C\c1csc(C)n1)[C@@H]1C[C@@H]2O[C@]2(C)CCC[C@H](C)[C@H](O)[C@@H](C)C(=O)C(C)(C)[C@@H](O)CC(=O)N1 [Ixabepilone] (1000 nM)
-- reply 62.7%

-- ask Reported normalised response for BT-549, given CCn1c(C(=O)N(C2CC2)C2CC2)cc2c3c(ncn3C)c(Nc3cc(C)n(C)n3)nc21 (100 nM) ?
-- reply 106%

-- ask So what normalised response did Cn1cc(C2=C(c3cn(C4CCN(Cc5ccccn5)CC4)c4ccccc34)C(=O)NC2=O)c2ccccc21 [Enzastaurin] (1000 nM) get with BT-549?
-- reply 143%

-- ask Form field: normalised response recorded for CC[C@H](CO)Nc1nc(NCc2ccccc2)c2ncn(C(C)C)c2n1 [Seliciclib] (10000 nM) with BT-549 (enter value)
-- reply 91.5%

-- ask Entry Nc1ccn([C@@H]2O[C@H](CO)[C@@H](O)C2(F)F)c(=O)n1 [Gemcitabine] (10 nM) , system BT-549: what normalised response was measured?
-- reply 92.5%

-- ask Query for BT-549: what normalised response does the record show for CC(C)(C)NC(=O)[C@H]1CC[C@H]2[C@@H]3CC[C@H]4NC(=O)C=C[C@]4(C)[C@H]3CC[C@]12C [Finasteride] (10000 nM) ?
-- reply 98.9%

-- ask What value of normalised response on BT-549 does CC(C)C[C@H](NC(=O)[C@@H](COC(C)(C)C)NC(=O)[C@H](Cc1ccc(O)cc1)NC(=O)[C@H](CO)NC(=O)[C@H](Cc1c[nH]c2ccccc12)NC(=O)[C@H](Cc1cnc[nH]1)NC(=O)[C@@H]1CCC(=O)N1)C(=O)N[C@@H](CCCNC(=N)N)C(=O)N1CCC[C@H]1C(=O)NNC(N)=O [Goserelin] (100 nM) have?
-- reply 108%

-- ask Item O=C(O)CNC(=O)c1c(O)c2ccccc2n(Cc2ccccc2)c1=O [IOX-2] (50000 nM) with BT-549 - normalised response?
-- reply 73.6%

-- ask Any idea what normalised response came out for CCNC(=O)CCC/C=C\C[C@@H]1[C@@H](/C=C/[C@@H](O)CCc2ccccc2)[C@H](O)C[C@@H]1O [Bimatoprost] (55 nM) on BT-549?
-- reply 94.8%

-- ask BT-549 / normalised response / CO[C@@]12[C@H](COC(N)=O)C3=C(C(=O)C(C)=C(N)C3=O)N1C[C@@H]1N[C@@H]12 [Mitomycin C] (1000 nM) : value?
-- reply 123%

-- ask Please state recorded normalised response (tested on BT-549) of C=CCN(/C=C1/C(=O)O[C@H](COC)[C@@]2(C)C1=C(O)C(=O)C1=C2[C@H](OC(C)=O)C[C@]2(C)C(=O)CC[C@@H]12)CC=C [Sonolisib] (1000 nM)
-- reply 112%

-- ask # get_value(readout= normalised response, system= BT-549) for COc1ccc(S(=O)(=O)Nc2cccnc2Nc2ccc(O)cc2)cc1 [ABT-751] (1000 nM)
-- reply 40.4%

-- ask Requested read-out normalised response, target or system BT-549, entry CN(Cc1cnc2nc(N)nc(N)c2n1)c1ccc(C(=O)N[C@@H](CCC(=O)O)C(=O)O)cc1 [Methotrexate] (50000 nM)
-- reply 103%

-- ask Form field - read-out: normalised response; system: BT-549; submitted item: CC(C)n1cnc2c(NCCc3ccc(O)cc3)nc(-c3csc4ccccc34)nc21 [StemRegenin 1] (1000 nM)
-- reply -112%

-- ask So what normalised response did Nc1ccn([C@@H]2O[C@H](CO)[C@@H](O)C2(F)F)c(=O)n1 [Gemcitabine] (1000 nM) get with BT-549?
-- reply 88.8%

-- ask Kindly state the measured normalised response obtained for CC[C@H](CO)Nc1nc(NCc2ccccc2)c2ncn(C(C)C)c2n1 [Seliciclib] (1000 nM) with BT-549.
-- reply 117%

-- ask # returns recorded normalised response (system: BT-549) for Cn1cc(C2=C(c3cn(C4CCN(Cc5ccccn5)CC4)c4ccccc34)C(=O)NC2=O)c2ccccc21 [Enzastaurin] (10000 nM)
-- reply 94.8%

-- ask Give normalised response (BT-549) of the following compound: COc1ccc(S(=O)(=O)Nc2cccnc2Nc2ccc(O)cc2)cc1 [ABT-751] (10000 nM)
-- reply 77.8%

-- ask Record CC(C)(C)NC(=O)[C@H]1CC[C@H]2[C@@H]3CC[C@H]4NC(=O)C=C[C@]4(C)[C@H]3CC[C@]12C [Finasteride] (100 nM) : what is its normalised response with BT-549?
-- reply 102%

-- ask So what normalised response did CC(=O)[C@]1(O)Cc2c(O)c3c(c(O)c2[C@@H](O[C@H]2C[C@H](N)[C@H](O)[C@H](C)O2)C1)C(=O)c1ccccc1C3=O [Idarubicin] (1000 nM) get with BT-549?
-- reply 84.2%

-- ask Record CO[C@@H]1[C@H](N(C)C(=O)c2ccccc2)C[C@H]2O[C@]1(C)n1c3ccccc3c3c4c(c5c6ccccc6n2c5c31)C(=O)NC4 [Midostaurin] (1000 nM) : what is its normalised response with BT-549?
-- reply 54%

-- ask # query: normalised response | item Nc1ccn([C@@H]2O[C@H](CO)[C@@H](O)C2(F)F)c(=O)n1 [Gemcitabine] (100 nM) | system: BT-549
-- reply 95%

-- ask Reported normalised response for BT-549, given CC(C)n1cnc2c(NCCc3ccc(O)cc3)nc(-c3csc4ccccc34)nc21 [StemRegenin 1] (100 nM) ?
-- reply 100%

-- ask BT-549 / normalised response / CC(C)C[C@H](NC(=O)[C@@H](COC(C)(C)C)NC(=O)[C@H](Cc1ccc(O)cc1)NC(=O)[C@H](CO)NC(=O)[C@H](Cc1c[nH]c2ccccc12)NC(=O)[C@H](Cc1cnc[nH]1)NC(=O)[C@@H]1CCC(=O)N1)C(=O)N[C@@H](CCCNC(=N)N)C(=O)N1CCC[C@H]1C(=O)NNC(N)=O [Goserelin] (10000 nM) : value?
-- reply 107%
